B1: tRNA (parent)
chain: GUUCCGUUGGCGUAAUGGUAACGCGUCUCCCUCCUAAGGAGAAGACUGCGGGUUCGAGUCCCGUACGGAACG

# Variants of: B1
# PROCEDURE DETAILS: yeast fitness, log relative to wild type (ln ratio); higher = fitter; tRNA-Arg(CCU), competitive growth, 37 C, 1 M NaCl
Below: a set of entries, each annotated with reported yeast fitness (ln).

VARIANT DESIGNATION: U2C G6U C66A A70G
yeast fitness (ln): -0.0114
--
VARIANT DESIGNATION: U2C G6U C27U A43C C71U
yeast fitness (ln): -0.23
--
VARIANT DESIGNATION: G1A U2C G6A C27U C66U A70U
yeast fitness (ln): -0.141
--
VARIANT DESIGNATION: G1A U2G G6A C27U C71U
yeast fitness (ln): -0.263
--
VARIANT DESIGNATION: U2G G6U C27U C46U A70U C71U
yeast fitness (ln): -0.171
--
VARIANT DESIGNATION: U2G G6U C66A A69G A70U
yeast fitness (ln): -0.000141
--
VARIANT DESIGNATION: U2C G6A C27U A43C C46U A70U
yeast fitness (ln): -0.0327
--
VARIANT DESIGNATION: G1A U2C G6A C27U A70U C71U
yeast fitness (ln): -0.109
--
VARIANT DESIGNATION: U2C G6U C27U C66U A69G A70G C71U
yeast fitness (ln): -0.288
--
VARIANT DESIGNATION: G6A A43C A69G A70G C71U
yeast fitness (ln): -0.305
--
VARIANT DESIGNATION: C27U A43C C46U C71U
yeast fitness (ln): -0.0385
